Target: SHP2 (Homo sapiens, UniProt Q06124)
Sequence (Q06124 1-593): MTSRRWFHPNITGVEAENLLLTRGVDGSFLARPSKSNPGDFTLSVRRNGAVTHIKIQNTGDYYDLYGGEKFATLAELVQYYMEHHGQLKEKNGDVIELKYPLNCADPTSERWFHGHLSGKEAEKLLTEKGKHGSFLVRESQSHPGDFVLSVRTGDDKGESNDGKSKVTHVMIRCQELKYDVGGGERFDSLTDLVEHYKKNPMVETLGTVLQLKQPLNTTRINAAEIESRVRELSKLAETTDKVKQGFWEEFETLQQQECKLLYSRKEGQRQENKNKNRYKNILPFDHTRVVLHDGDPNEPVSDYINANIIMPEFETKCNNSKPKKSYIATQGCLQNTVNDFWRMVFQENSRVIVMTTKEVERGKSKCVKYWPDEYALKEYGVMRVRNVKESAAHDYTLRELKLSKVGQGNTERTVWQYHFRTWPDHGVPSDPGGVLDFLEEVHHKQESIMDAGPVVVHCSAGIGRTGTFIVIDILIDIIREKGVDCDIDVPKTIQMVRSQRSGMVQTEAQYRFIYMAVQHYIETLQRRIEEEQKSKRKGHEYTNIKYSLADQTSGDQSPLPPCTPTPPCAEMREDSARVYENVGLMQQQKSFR
Assay: SHP2 allosteric inhibitor enzyme activity assay (DiFMUP fluorescence)
Assay type: biochemical
Conditions: class symbols
pIC50: −log10 of the molar value.
Measured pIC50 values are reported for all entries that follow.

Past entries and their recorded results:
{"Compound": "C[C@@H]1OCC2(CCN(c3ncc(C4(c5ccccc5)CC4)nc3C(N)=O)CC2)[C@@H]1N", "Subject Of Test": "SHP2 (Homo sapiens, UniProt Q06124)", "Result Type": "pIC50", "Result": "< 7.22"}
{"Compound": "N[C@@H]1c2ccccc2CC12CCN(c1nc3[nH]nc(C4(c5ccc6c(c5)OC(F)(F)O6)CC4)c3c(=O)[nH]1)CC2", "Subject Of Test": "SHP2 (Homo sapiens, UniProt Q06124)", "Result Type": "pIC50", "Result": "≥ 7.70"}
{"Compound": "Cc1cc2c(nn1)CC(C)(C)C=C2c1n[nH]c2nc(N3CCC4(CC3)Cc3ccccc3[C@H]4N)[nH]c(=O)c12", "Subject Of Test": "SHP2 (Homo sapiens, UniProt Q06124)", "Result Type": "pIC50", "Result": "≥ 7.70"}

Field: pIC50 (SHP2 (Homo sapiens, UniProt Q06124)). Entry: `CC(=O)N1CC(F)(F)c2c1cccc2C1(c2n[nH]c3nc(N4CCC5(CC4)Cc4ccccc4[C@H]5N)[nH]c(=O)c23)CC1`
≥ 7.70

Give pIC50 (SHP2 (Homo sapiens, UniProt Q06124)) of the following compound: CC1(C)CC=C(c2n[nH]c3nc(N4CCC5(CC4)Cc4ccccc4C5N)[nH]c(=O)c23)c2cccnc21 (stereo not shown)
≥ 7.70

Find pIC50 (SHP2 (Homo sapiens, UniProt Q06124)) for the entry `C[C@@H]1OCC2(CCN(C3=NC(N)=C(C4(c5ccccc5)CC4)C4=NCCCN43)CC2)[C@@H]1N`
< 7.22

What reported pIC50 corresponds to `N[C@@H]1c2ccccc2CC12CCN(c1nc3[nH]nc(C4=C(F)CCc5nc(C(F)(F)F)ccc54)c3c(=O)[nH]1)CC2` on SHP2 (Homo sapiens, UniProt Q06124)?
≥ 7.70
